# Assayed system: Neu5Ac(a2-3)Gal6S(b1-4)GlcNAc
# Method description: glycan array binding signal (z-score within array); higher = stronger binding
# Protocol conditions: glycan notation: IUPAC condensed, linker removed
The full list was thinned out, with the strongest signals kept by preference.
Observed property: glycan array binding signal (z-score)
One number for each entry.

Query string: Suppose we examine the binder F17aG (Escherichia coli), Q99003 (protein) MTNFYKVFLAVFILVCCNISQAAVSFIGSTENDVGPSLGSYSRTHAMDNLPFVYDTRNKIGYQNANVWHISKGFCVGLDGKVDLPVVGSLDGQSIYGLTEEVGLLIWMGDTKYSRGTAMSGNSWENVFSGWCVGANTASTQGLSVRVTPVILKRNSSARYSVQKTSIGSIRMRPYNGSSAGSVQTTVNFSLNPFTLNDTVTSCRLLTPSAVNVSLAAISAGQLPSSGDEVVAGTTSLKLQCDAGVTVWATLTDATTPSNRSDILTLTGASTATGVGLRIYKNTDSTPLKFGPDSPVKGNENQWQLSTGTETSPSVRLYVKYVNTGEGINPGTVNGISTFTFSYQ ; what glycan array binding signal (z-score) value has been reported?
Result string: -0.233
